Assayed Target: recombinant human GALK1 (Homo sapiens)
Sequence (P51570 whole entry): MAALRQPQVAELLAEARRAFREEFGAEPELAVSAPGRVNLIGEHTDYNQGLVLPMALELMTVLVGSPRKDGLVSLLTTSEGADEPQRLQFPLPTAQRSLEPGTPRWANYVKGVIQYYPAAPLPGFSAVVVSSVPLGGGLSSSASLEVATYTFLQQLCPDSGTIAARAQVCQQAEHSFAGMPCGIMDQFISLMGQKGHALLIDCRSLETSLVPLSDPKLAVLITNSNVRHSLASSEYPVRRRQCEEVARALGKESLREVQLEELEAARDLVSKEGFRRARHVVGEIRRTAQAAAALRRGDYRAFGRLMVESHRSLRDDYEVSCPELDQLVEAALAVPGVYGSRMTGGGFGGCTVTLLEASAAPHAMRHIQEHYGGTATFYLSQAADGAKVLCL
Protocol Text: hGALK1 biochemical activity assay (Kinase-Glo Plus, ATP depletion)
Condition Notes: recombinant human GALK1, Kinase-Glo Plus ATP depletion; read-out: hGALK
Metric Name: IC50 (µM)
Numeric only. Scale: µM

Take a look at these entries with their results.
COc1ccc(C2N=C(Nc3nc4ccc(F)cc4o3)NC(C)=C2C(=O)Nc2cc(C(=O)O)ccn2)c(Cl)c1 (racemic)	0.43
CC1=C(C(=O)Nc2nnc(-c3cccnc3)s2)C(c2ccccc2Cl)N=C(Nc2nc3ccc(F)cc3o2)N1 (stereo not shown)	17.2
CC1=C(C(=O)Nc2cc(C(=O)O)ccn2)C(c2ccc(C(F)(F)F)cc2Cl)N=C(Nc2nc3ccc(F)cc3o2)N1 (stereo not shown)	1.53

stdin: # return recorded IC50 for input COc1cccc2nc(NC3=NC(c4ccccc4Cl)C(C(=O)Nc4cc(C(=O)O)ccn4)=C(C)N3)oc12 (stereo not shown)
stdout: 21.7
